Molecular target: T1, SpPot1p (Pot1, full length) (Schizosaccharomyces pombe, UniProt O13988 O13988:1-555)
T1 sequence: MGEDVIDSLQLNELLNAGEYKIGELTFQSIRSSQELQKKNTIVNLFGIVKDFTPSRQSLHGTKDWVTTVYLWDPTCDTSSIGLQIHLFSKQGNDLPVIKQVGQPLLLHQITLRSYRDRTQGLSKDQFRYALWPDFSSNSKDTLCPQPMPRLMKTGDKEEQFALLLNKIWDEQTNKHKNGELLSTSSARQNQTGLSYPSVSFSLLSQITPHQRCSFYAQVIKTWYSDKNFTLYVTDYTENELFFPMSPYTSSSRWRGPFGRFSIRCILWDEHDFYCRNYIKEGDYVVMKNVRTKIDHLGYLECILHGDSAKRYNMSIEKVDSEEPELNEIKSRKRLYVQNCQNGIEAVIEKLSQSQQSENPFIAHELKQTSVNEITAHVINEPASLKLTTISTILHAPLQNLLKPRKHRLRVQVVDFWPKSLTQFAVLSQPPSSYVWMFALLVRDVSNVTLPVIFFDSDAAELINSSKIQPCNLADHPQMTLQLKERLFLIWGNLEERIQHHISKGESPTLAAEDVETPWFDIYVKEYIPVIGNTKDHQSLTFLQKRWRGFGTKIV
Test: listed as SpPot1p-binding oligonucleotide
Details: tags: N-terminal V5 and His6 tags plus pQE30 N-terminal His6; E. coli M15
measuredAttribute: binding result

// solved cases for binding result follow
GGTTACGGTTACCATCATTCGAATCTCG (ssDNA) [PBoli186] = binds
GGTTACGGTTACAGGTTACA (ssDNA) [PBoli52] = binds
CGGTTACACGGTTACAGGT (ssDNA) [PBoli53] = binds
TGTGGTGTGTGGGTGTGCGGTT (ssDNA) [PBoli86] = binds
GGTTACGCATATCATCATTCGAATCTCG (ssDNA) [PBoli184] = binds

[ask] Please give the measured binding result for this binder: GGTTACACGGTTACAGGTTACAGGTTACAG (ssDNA) [PBoli110]
[reply] binds

[ask] Please give the measured binding result for this binder: GTTACAGGTTACGGTTACGG (ssDNA) [PBoli54]
[reply] binds

[ask] Please give the measured binding result for this binder: CTGTAAGCATATCATCATTCGAGGTTAC (ssDNA) [PBoli183]
[reply] binds
